Below, each entry is listed alongside its reported TGI.
tested on: LOX IMVI melanoma; test: NCI tumour cell line growth inhibition, 48 h
Where a SMILES comes first, the peptide text is derived from it. The star is where a group is joined. Boc = CC(C)(C)OC(=O)*; Bn = c1ccc(C*)cc1

compound	TGI
CC(C)(C)CN1[C@@H]2CCCC[C@H]2N(CC(C)(C)C)P1(=O)C(O)/C=C/c1ccccc1 (stereo partly drawn)	37.3 µM
Cc1cccc2c(N=Nc3ccccc3[N+](=O)[O-])c(O)[nH]c12	27.1 µM
COC(=O)C(CC(C)C)NC(=O)CNC(=O)C(Cc1ccc(OCc2ccccc2)cc1)NC(=O)C(COCc1ccccc1)NC(=O)OC(C)(C)C (stereo not drawn) (Boc-S(Bn)Y(Bn)GL-OMe; configuration not given here)	> 100 µM
O=C1Nc2ccc(CN3CCOC3=O)cc2/C1=C/c1cc(CN2CCOCC2)c[nH]1	> 100 µM
O=C(Nc1cc(C(F)(F)F)cc(C(F)(F)F)c1)Nc1ccc(OCc2nnc(-c3ccc(Cl)cc3)o2)c(F)c1	5.31 µM
CN(C(=O)c1cc2c(s1)sc1c(=O)n(C)c3ccccc3c12)c1ccccc1	> 100 µM
CC1(C)Cc2nnsc2C2=C1C(=O)CCS2	> 100 µM
CC(CC(C)[C@H]1CCC2[C@H]3C(CC(=O)[C@@]21C)[C@@]1(C)CCC(O)C[C@H]1C[C@@H]3O)C(=O)O (stereo partly drawn)	> 100 µM
O=C(NN1C(=O)C(Cl)C1c1cccc(Cl)c1)c1ccccc1O (stereo not drawn)	> 100 µM
O=C(O)c1cc2cc(O)ccc2[nH]1	> 100 µM
CC(=O)OCC1OC(n2c(=S)n(-c3ccccc3)c(=O)c3cc(Br)ccc32)C(OC(C)=O)C(OC(C)=O)C1OC(C)=O (stereo not drawn)	> 100 µM
O=C1[C@@H]2C(c3ccncc3)=NO[C@@H]2C(=O)N1c1ccc(Cc2ccc(N3C(=O)[C@H]4C(c5ccncc5)=NO[C@H]4C3=O)cc2)cc1	> 100 µM
CC(=O)N1N=C(c2ccc(Nc3nc(Nc4ccc(F)cc4)nc(Nc4ccc(Cl)cc4)n3)cc2)CC1c1ccc(N(C)C)cc1 (stereo not drawn)	12.8 µM
C=CCN(N=O)C(=O)N(CCCCC(NC(C)=O)C(=O)NCc1ccccc1)Cc1ccccc1 (stereo not drawn)	55.3 µM
C=C1C(=O)O[C@H]2[C@H]1CC/C(COC(=O)C(=O)c1c[nH]c3ccc(Cl)cc13)=C\CC[C@@]1(C)O[C@@H]21	0.396 µM
COc1ccc(Nc2ncc(-c3ccccc3)o2)cc1OC	> 25 µM
O=C(/N=C1/OC(CN2CCOCC2)CN1C(=O)Nc1ccccc1)Nc1ccccc1 (stereo not drawn)	> 100 µM
CN1C(=O)C(C#N)C2C[C@@]1(C)Oc1ccccc12 (stereo partly drawn)	> 100 µM
